# Measurement Target: Prostaglandin G/H synthase 2 (Homo sapiens)
# Sequence (P35354 whole entry): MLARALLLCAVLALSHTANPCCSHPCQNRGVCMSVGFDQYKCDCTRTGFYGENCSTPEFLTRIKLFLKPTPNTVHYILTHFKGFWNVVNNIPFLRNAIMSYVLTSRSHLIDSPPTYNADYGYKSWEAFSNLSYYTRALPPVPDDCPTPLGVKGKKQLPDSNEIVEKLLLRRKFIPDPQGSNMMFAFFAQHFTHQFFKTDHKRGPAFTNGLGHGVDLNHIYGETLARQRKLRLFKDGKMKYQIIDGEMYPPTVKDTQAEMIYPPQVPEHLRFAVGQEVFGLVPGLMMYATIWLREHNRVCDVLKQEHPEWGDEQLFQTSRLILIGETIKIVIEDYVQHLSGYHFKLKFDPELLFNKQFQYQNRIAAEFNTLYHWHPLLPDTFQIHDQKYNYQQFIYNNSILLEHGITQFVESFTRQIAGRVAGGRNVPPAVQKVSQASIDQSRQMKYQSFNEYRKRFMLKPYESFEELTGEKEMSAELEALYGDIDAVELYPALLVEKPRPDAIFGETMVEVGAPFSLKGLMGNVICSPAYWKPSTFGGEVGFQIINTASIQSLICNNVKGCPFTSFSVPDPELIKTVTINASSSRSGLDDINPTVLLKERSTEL
# Protocol: Inhibition of recombinant human COX2 assessed as reduction in PGF2alpha production from PGH2 by enzyme immunoassay
pIC50: −log10 of the molar value.
Quantity: pIC50

[[record]]
molecule = "CC(=O)NC1=NN(C(C)=O)C(c2cn(-c3ccccc3)nc2-c2ccc([N+](=O)[O-])cc2)S1 (configuration not stated)"
readout_number = 4.70

[[record]]
molecule = "CC(=O)NC1=NN(C(C)=O)C(c2cn(-c3ccccc3)nc2-c2ccc(O)cc2)S1 (configuration not stated)"
readout_number = 4.85


---

# Measurement Target: Prostaglandin G/H synthase 1 (Ovis aries, UniProt P05979)
# Sequence (P05979 whole entry): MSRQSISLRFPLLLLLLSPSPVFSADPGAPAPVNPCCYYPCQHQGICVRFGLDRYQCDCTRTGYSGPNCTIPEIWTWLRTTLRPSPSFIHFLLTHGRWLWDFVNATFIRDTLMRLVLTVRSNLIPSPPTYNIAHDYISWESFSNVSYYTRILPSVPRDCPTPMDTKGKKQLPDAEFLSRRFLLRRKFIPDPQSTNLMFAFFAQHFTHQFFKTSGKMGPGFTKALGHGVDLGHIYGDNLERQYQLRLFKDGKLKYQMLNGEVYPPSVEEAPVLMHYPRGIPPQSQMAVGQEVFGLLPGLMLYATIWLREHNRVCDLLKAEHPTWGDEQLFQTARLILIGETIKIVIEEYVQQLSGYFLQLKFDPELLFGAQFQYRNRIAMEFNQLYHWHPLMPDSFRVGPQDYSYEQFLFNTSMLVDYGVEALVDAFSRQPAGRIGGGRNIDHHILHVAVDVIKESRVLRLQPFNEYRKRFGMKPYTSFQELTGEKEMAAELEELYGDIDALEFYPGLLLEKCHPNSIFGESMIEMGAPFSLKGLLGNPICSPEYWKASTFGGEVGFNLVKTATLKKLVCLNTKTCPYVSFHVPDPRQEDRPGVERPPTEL
# Protocol: Inhibition of recombinant ovine COX1 assessed as reduction in PGF2alpha production from PGH2 by enzyme immunoassay
pIC50: −log10 of the molar value.
The molecules listed here are annotated with their pIC50.
Quantity: pIC50

[[record]]
molecule = "CC(=O)NC1=NN(C(C)=O)C(c2cn(-c3ccccc3)nc2-c2ccc([N+](=O)[O-])cc2)S1 (configuration not stated)"
quantity = "pIC50"
readout_number = 4.15

[[record]]
molecule = "CC(=O)NC1=NN(C(C)=O)C(c2cn(-c3ccccc3)nc2-c2ccc(O)cc2)S1 (configuration not stated)"
quantity = "pIC50"
readout_number = 4.14

